target.entity: Meprin β62–595 (MβΔC) (Homo sapiens)
Construct: His-tag (N, cleaved yes); α-mating factor secretion signal (S. cerevisiae) (N, cleaved yes); made in house; host or cells: Pichia pastoris X33
Sequence (Q16820 62-595, stated change not applied): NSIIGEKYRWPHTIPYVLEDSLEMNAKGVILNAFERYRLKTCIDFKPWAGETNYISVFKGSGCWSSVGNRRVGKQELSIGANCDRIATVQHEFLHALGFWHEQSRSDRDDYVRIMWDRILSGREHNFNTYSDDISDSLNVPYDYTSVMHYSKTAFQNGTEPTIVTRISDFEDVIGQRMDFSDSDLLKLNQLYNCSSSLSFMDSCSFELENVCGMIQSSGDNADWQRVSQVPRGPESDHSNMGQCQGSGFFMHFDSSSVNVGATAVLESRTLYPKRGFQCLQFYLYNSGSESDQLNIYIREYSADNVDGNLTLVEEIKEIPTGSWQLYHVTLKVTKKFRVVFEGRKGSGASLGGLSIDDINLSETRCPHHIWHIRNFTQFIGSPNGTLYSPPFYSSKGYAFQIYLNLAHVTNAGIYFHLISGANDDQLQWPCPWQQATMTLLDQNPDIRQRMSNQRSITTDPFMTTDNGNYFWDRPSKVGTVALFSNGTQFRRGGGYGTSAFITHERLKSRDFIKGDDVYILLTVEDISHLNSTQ
method.description: Isothermal titration calorimetry (ITC) of inhibitors to Meprin β62–595 (MβΔC)
Assay type: binding
study.conditions: ITC, 30 °C, 40 mM Tris pH 8.0 (no NaCl)
reported.property: pKd
Note on units: pKd is unitless, being -log10 of a concentration expressed in mol/L.

Read off the recorded pKd for O=C(CN(Cc1cccc(C(=O)O)c1)Cc1cccc(C(=O)O)c1)NO
7.80

Read off the recorded pKd for O=C(CN(Cc1cccc(C(=O)O)c1)Cc1ccc2c(c1)OCO2)NO
6.63

Read off the recorded pKd for O=C(CN(Cc1ccccc1)Cc1cccc(C(=O)O)c1)NO
6.13
